# system.under.test: T1, mouse KDR (Flk-1)/Fc (Cat. #443-KD/CF, R&D Systems) (mouse, UniProt P35918 20-762)
# T1 construct: Bought reagent; also called mouse VEGFR2; KDR mouse ortholog; Fc part of the bought chimera not given
# method.summary: ELISA, plate-coated Flk-1/Fc 500 ng/mL, hybridoma supernatant 1:5
quantity.kind: OD (450 nm)

-- ask Look up and report measured OD (450 nm) for this entry: anti-KDR monoclonal antibody 24B3 (antibody, V domains shown, Fully human mAb from XenoMouse (IgG2 or IgG4 strain); hybridoma supernatant) VH: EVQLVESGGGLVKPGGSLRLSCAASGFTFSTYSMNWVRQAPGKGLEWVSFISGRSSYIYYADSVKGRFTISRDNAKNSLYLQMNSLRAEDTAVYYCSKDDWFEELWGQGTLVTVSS VL: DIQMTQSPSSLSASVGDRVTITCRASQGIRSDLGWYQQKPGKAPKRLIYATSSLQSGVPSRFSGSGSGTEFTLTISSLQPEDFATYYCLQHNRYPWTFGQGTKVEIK
-- reply 0.094 OD450

// input: 2 binders below; output: OD (450 nm) for each
1. anti-KDR monoclonal antibody 1G6 (antibody, V domains shown, Fully human mAb from XenoMouse (IgG2 or IgG4 strain); tested here as hybridoma supernatant) VH: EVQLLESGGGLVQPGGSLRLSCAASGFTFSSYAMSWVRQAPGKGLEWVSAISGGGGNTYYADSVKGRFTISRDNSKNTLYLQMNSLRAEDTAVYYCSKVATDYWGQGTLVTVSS VL: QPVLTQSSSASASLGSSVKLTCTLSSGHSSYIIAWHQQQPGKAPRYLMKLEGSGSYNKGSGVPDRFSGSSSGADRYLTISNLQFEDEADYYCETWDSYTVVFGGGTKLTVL
2. anti-KDR monoclonal antibody 30A1 (antibody, V domains shown, Fully human mAb from XenoMouse (IgG2 or IgG4 strain); hybridoma supernatant) VH: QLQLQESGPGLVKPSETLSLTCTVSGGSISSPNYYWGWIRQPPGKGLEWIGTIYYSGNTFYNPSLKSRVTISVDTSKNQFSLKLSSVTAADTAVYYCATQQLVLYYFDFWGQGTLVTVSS VL: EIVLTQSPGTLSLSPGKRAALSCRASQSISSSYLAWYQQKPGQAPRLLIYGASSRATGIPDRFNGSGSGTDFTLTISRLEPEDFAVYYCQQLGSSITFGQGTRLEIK

-- reply
["0.055 OD450", "0.107 OD450"]
